# Test system: MCF7 breast cancer cell lines
# method-description: Cell viability analysis, WST-8 assay, MCF7
# applied-conditions: Homo sapiens, MCF7, 72 h, read-out: Cell viability (%) WST-8, MCF7 (1 µM), compound 1 µM, 72 hours
value-kind: viability at 1 µM
Returns: string containing the numeric result and its unit.

These recorded examples may help you get a feel for the data.
Cc1cc(Nc2nc(N3CC4CC3CN4C(=O)NC(C)C)nc3ccccc23)n[nH]1 (stereo not shown) [compound 27a] : 95.6%
CC(C)(C)OC(=O)NCCCCNC(=O)c1ccc(Nc2nc(Nc3cc(C4CC4)[nH]n3)c3ccccc3n2)cc1 [4y] : 78.7%
CC(C)C(=O)N1CC2CC1CN2c1nc(Nc2cc(C3CC3)[nH]n2)c2ccccc2n1 (stereo not shown) [compound 15d] : 51.5%

--- query ---
For reference, reported viability at 1 µM for C1=C(c2cccc3ccccc23)CCN(c2nc(Nc3cc(C4CC4)[nH]n3)c3ccccc3n2)C1 [compound 6i] stands at 113%
